Data credit: ChEMBL document CHEMBL1126089

- ASSAY_TARGET: UniProt P25099
- EXPERIMENTAL_DETAILS: Binding affinity against low affinity component of Adenosine A1 receptor from rat brain membranes using [3H]DPCPX
- Format: cell membranes, Membrane
PARAMETER: pKi
In textbook form, pKi equals minus log to base ten of the concentration in mol/L.

Reported pKi for CCCCCCC#Cc1nc(N)c2ncn(C3O[C@H](C(=O)NCC)[C@@H](O)[C@H]3O)c2n1 (some centres not stated) : what is it?
5.53

Continue with CCCCCC#Cc1nc(N)c2ncn(C3O[C@H](C(=O)NCC)[C@@H](O)[C@H]3O)c2n1 (some centres not stated)
5.54

---

Measured Ki (Adenosine receptor A1 (Rattus norvegicus))
API: value field is a number in nM; no unit string.

Reported Ki for CCCCC#Cc1nc(N)c2ncn([C@@H]3O[C@H](C(=O)NCC)[C@@H](O)[C@H]3O)c2n1 : what is it?
3160

Continue with CCCCC#Cc1nc(N)c2ncn([C@@H]3O[C@H](CO)[C@@H](O)[C@H]3O)c2n1
633

Continue with CCCCCC#Cc1nc(N)c2ncn([C@@H]3O[C@H](CO)[C@@H](O)[C@H]3O)c2n1
1220

Continue with CCCC#Cc1nc(N)c2ncn([C@@H]3O[C@H](CO)[C@@H](O)[C@H]3O)c2n1
849

Continue with CCCCCCC#Cc1nc(N)c2ncn([C@@H]3O[C@H](CO)[C@@H](O)[C@H]3O)c2n1
823

---

- ASSAY_TARGET: Adenosine A2 receptor (Homo sapiens, UniProt P29275+P29274)
- EXPERIMENTAL_DETAILS: Agonistic activity at adenosine A2 receptor
- Format: functional
PARAMETER: Emax (%)
API: value field is a number in %; no unit string.

Reported Emax for CCCCCC#Cc1nc(N)c2ncn([C@@H]3O[C@H](CO)[C@@H](O)[C@H]3O)c2n1 : what is it?
65

Continue with CCCCC#Cc1nc(N)c2ncn([C@@H]3O[C@H](C(=O)NCC)[C@@H](O)[C@H]3O)c2n1
100

Continue with CCCCCCC#Cc1nc(N)c2ncn([C@@H]3O[C@H](CO)[C@@H](O)[C@H]3O)c2n1
65

Continue with CCCC#Cc1nc(N)c2ncn([C@@H]3O[C@H](CO)[C@@H](O)[C@H]3O)c2n1
65

Continue with CCCCC#Cc1nc(N)c2ncn([C@@H]3O[C@H](CO)[C@@H](O)[C@H]3O)c2n1
65

---

- ASSAY_TARGET: Adenosine receptor A1 (Rattus norvegicus, UniProt P25099)
- Sequence (P25099 whole entry): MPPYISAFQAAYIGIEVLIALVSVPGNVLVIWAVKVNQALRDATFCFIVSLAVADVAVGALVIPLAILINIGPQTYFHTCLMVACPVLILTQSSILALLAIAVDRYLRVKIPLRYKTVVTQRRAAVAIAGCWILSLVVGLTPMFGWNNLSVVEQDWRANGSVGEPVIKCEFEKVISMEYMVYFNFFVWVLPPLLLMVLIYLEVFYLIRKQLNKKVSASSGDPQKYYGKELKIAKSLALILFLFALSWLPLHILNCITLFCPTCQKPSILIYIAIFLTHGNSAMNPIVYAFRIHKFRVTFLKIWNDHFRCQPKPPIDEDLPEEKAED
- EXPERIMENTAL_DETAILS: Binding affinity against A1 adenosine receptors from rat brain membranes using [3H]CCPA
PARAMETER: Ki
Returns: string containing the number followed by the unit.

Reported Ki for CCCC#Cc1nc(N)c2ncn([C@@H]3O[C@H](C(=O)NCC)[C@@H](O)[C@H]3O)c2n1 : what is it?
40.8 nM

---

- ASSAY_TARGET: Adenosine A2 receptor (Homo sapiens, UniProt P29275+P29274)
- EXPERIMENTAL_DETAILS: Maximal NECA stimulation of adenylate cyclase via adenosine A2 receptor in human platelet membranes
- Format: cell membranes
PARAMETER: EC50 (µM)
API: value field is a number in µM; no unit string.

I'm curious: which EC50 was measured for CCCCC#Cc1nc(N)c2ncn([C@@H]3O[C@H](C(=O)NCC)[C@@H](O)[C@H]3O)c2n1 tested on Adenosine A2 receptor (Homo sapiens, UniProt P29275+P29274)?
0.105

Continue with CCCCCCC#Cc1nc(N)c2ncn([C@@H]3O[C@H](CO)[C@@H](O)[C@H]3O)c2n1
0.681

Continue with CCCC#Cc1nc(N)c2ncn([C@@H]3O[C@H](CO)[C@@H](O)[C@H]3O)c2n1
0.127

Continue with CCCCCC#Cc1nc(N)c2ncn([C@@H]3O[C@H](CO)[C@@H](O)[C@H]3O)c2n1
0.414
